- ASSAY_COMMENT: Emission and luminescence quantum yield
- Assay type: physicochemical
- MEASUREMENT_PARAMETERS: acetonitrile
In plain terms, low Φem, luminescence quantum yield, meaning strictly below 1%, gives TRUE, and everything else gives FALSE.

Field: example entries. Status: answers known.
{"columns": ["COMPOUND", "QUALITATIVE_LABEL"],
 "data": [
  ["COc1ccc(/C=C/c2ccnc(-c3cc(/C=C/c4ccc(OC)cc4)ccn3)c2)cc1.COc1ccc(/C=C/c2ccnc(-c3cc(/C=C/c4ccc(OC)cc4)ccn3)c2)cc1.COc1ccc(/C=C/c2ccnc(-c3cc(/C=C/c4ccc(OC)cc4)ccn3)c2)cc1.F[P-](F)(F)(F)(F)F.F[P-](F)(F)(F)(F)F.[Ru+2] [compound 3]", "FALSE"],
  ["COc1ccc(/C=C/c2ccnc(-c3cc(/C=C/c4ccc(OC)cc4)ccn3)c2)cc1.F[P-](F)(F)(F)(F)F.F[P-](F)(F)(F)(F)F.[Ru+2].c1ccc(-c2ccccn2)nc1.c1ccc(-c2ccccn2)nc1 [compound 7]", "FALSE"],
  ["CN(C)c1ccc(/C=C/c2ccnc(-c3cc(/C=C/c4ccc(N(C)C)cc4)ccn3)c2)cc1.F[P-](F)(F)(F)(F)F.F[P-](F)(F)(F)(F)F.[Ru+2].c1ccc(-c2ccccn2)nc1.c1ccc(-c2ccccn2)nc1 [compound 6]", "TRUE"],
  ["C(=C\\c1ccnc(-c2cc(/C=C/c3ccccc3)ccn2)c1)/c1ccccc1.C(=C\\c1ccnc(-c2cc(/C=C/c3ccccc3)ccn2)c1)/c1ccccc1.C(=C\\c1ccnc(-c2cc(/C=C/c3ccccc3)ccn2)c1)/c1ccccc1.F[P-](F)(F)(F)(F)F.F[P-](F)(F)(F)(F)F.[Ru+2] [compound 1]", "FALSE"],
  ["CN(C)c1ccc(/C=C/c2ccnc(-c3cc(/C=C/c4ccc(N(C)C)cc4)ccn3)c2)cc1.CN(C)c1ccc(/C=C/c2ccnc(-c3cc(/C=C/c4ccc(N(C)C)cc4)ccn3)c2)cc1.F[P-](F)(F)(F)(F)F.F[P-](F)(F)(F)(F)F.[Ru+2].c1ccc(-c2ccccn2)nc1 [compound 4]", "TRUE"]
]}

Please indicate whether the reported Φem, luminescence quantum yield of COc1ccc(/C=C/c2ccnc(-c3cc(/C=C/c4ccc(OC)cc4)ccn3)c2)cc1.COc1ccc(/C=C/c2ccnc(-c3cc(/C=C/c4ccc(OC)cc4)ccn3)c2)cc1.F[P-](F)(F)(F)(F)F.F[P-](F)(F)(F)(F)F.[Ru+2].c1ccc(-c2ccccn2)nc1 [compound 5] is strictly below 1%.
FALSE

From: paper PMC7320011
